- Tested on: SF-295 CNS
- assay.summary: NCI tumour cell line growth inhibition, 48 h
experimental.endpoint: TGI (µM)
Field: numeric (µM). Do not append units.

{"columns": ["molecule", "units.label", "TGI"],
 "data": [
  ["COc1cc(-c2cc(C(=O)Nc3nc4ccccc4s3)nc3cc(-c4ccccc4)nn23)cc(OC)c1OC", "µM", 32.7]
]}

Fill in reported TGI for this entry: CC(C)/C(Cl)=N/OC(NC(=O)Nc1ccc(Cl)c(Cl)c1)(C(F)(F)F)C(F)(F)F 38.5

Fill in reported TGI for this entry: Cc1cc(S(=O)(=O)Nc2nnc(-c3ccco3)c(-c3ccco3)n2)c(SCc2ccccc2)cc1Cl 83.9

Fill in reported TGI for this entry: N#CCN(Cc1ccccc1)[C@H]1CCC[C@]1(O)/C=C/c1ccc2c(c1)OCO2 31.4

Fill in reported TGI for this entry: O=C1c2[nH]cc(CN[C@@H]3CCCN3)c2C(=O)c2c1c(O)c1ccccc1c2O 1.25

Fill in reported TGI for this entry: CCOC(=O)Oc1c(OC)cc(C(=O)c2ccc(OC)c(OC(=O)CCl)c2OC)cc1OC 33.7

Fill in reported TGI for this entry: COc1ccc(C[C@H]2NC[C@H](OC(C)=O)[C@H]2OC(C)=O)cc1 4.26

Fill in reported TGI for this entry: COc1ccc2c(c1OC)C(Br)CCC(Br)(Br)C2=O (stereo not drawn) 32.5

Fill in reported TGI for this entry: COc1cc2c(cc1C)NC(=O)/C2=C\c1cccnc1 35

###

- Test system: NCI-H522 lung
- assay.summary: NCI tumour cell line growth inhibition, 48 h; in the data active means GI50 below about 0.43 µM; inactive means the rest
Answer with one of the outcomes true (1) = active, false (0) = inactive

Here are 9 compounds together with their reported answers.
{"columns": ["compound", "assay.system", "group"],
 "data": [
  ["Cc1c(C(=O)CCl)c(=O)n(-c2ccccc2)n1C", "NCI-H522 lung", "false (0)"],
  ["OCc1ccc(N(Cc2ccc(F)cc2)C2CCC2)cc1Cl", "NCI-H522 lung", "false (0)"],
  ["COc1ccc(/C=C/C(=O)/C=C(/C=C/c2ccc(OC)c(OC)c2)OB(F)F)cc1OC", "NCI-H522 lung", "true (1)"],
  ["C[C@@H](Oc1cc(-c2cnn(C3CCNCC3)c2)cnc1N)c1c(Cl)ccc(F)c1Cl", "NCI-H522 lung", "false (0)"],
  ["CCNCCNc1cc(-c2ccc(Cl)cc2)c(C#N)c2nc3ccccc3n12", "NCI-H522 lung", "false (0)"],
  ["O=c1oc2ccccc2c(Cl)c1Cl", "NCI-H522 lung", "false (0)"],
  ["CC1/C=C/C=C/CC/C=C/C=C/C=C/C=C/C(OC2OC(C)C(O)C(N)C2O)CC2OC(CC(O)C(O)CCC(O)CC(O)CC(O)CC(=O)OC(C)C(C)C1O)CC(O)C2C(=O)O (stereo not given)", "NCI-H522 lung", "false (0)"],
  ["CCN(Cc1ccc(F)cc1F)c1ccc(CO)c(Cl)c1", "NCI-H522 lung", "false (0)"],
  ["Cc1cc(S(=O)(=O)Nc2nnc(-c3ccco3)c(-c3ccco3)n2)c(SCc2ccccc2)cc1Cl", "NCI-H522 lung", "false (0)"]
]}

What did the test return for CC1=C2C(=CC(C)(CO)C2O)C(=O)C(C)(O)C12CC2 (stereo not given) ? true (1)

###

- Test system: SK-OV-3 ovarian
- assay.summary: NCI tumour cell line growth inhibition, 48 h
experimental.endpoint: TGI

{"columns": ["compound", "TGI"],
 "data": [
  ["COc1nc(N)nc2c1n(C)c[n+]2C", "> 100 µM"],
  ["COC(=O)C(=O)C(C(=O)C(=O)Nc1ccc([N+](=O)[O-])cc1[N+](=O)[O-])c1nc2ccc([N+](=O)[O-])cc2[nH]c1=O (configuration not stated)", "> 100 µM"],
  ["CC(C)C(=O)CC(Sc1ccc(N)cc1)c1ccccc1 (configuration not stated)", "58.4 µM"]
]}

Fill in reported TGI for this entry: O=C1C(Cl)=C(Oc2ccccc2)C(=O)c2ccccc21 23.6 µM

Fill in reported TGI for this entry: CN(OC(=O)CC(=O)c1ccccc1)C(=O)Cc1ccccc1 > 100 µM

Fill in reported TGI for this entry: COc1ccc(-n2c(-c3ccc(NC(=O)CCCl)cc3)nnc2-c2cc(OC)c(OC)c(OC)c2)cc1 > 14.3 µM

Fill in reported TGI for this entry: COC(=O)C1=C(C(=O)OC)C2(c3ccccc3)c3ccccc3C(=O)C1N2C1CCCCC1 (configuration not stated) > 100 µM

###

- Tested on: SR leukemia
- assay.summary: NCI tumour cell line growth inhibition, 48 h
experimental.endpoint: TGI (µM)
Field: numeric (µM). Do not append units.

{"columns": ["molecule", "result"],
 "data": [
  ["CCN(CC)c1ccc2[nH]c3c(C(N)=O)cc(=O)c(=O)c=3oc2c1", 8.74],
  ["O=C(c1c(F)c(F)c(F)c(F)c1F)n1c(=O)[nH]c2ccccc21", 8.8],
  ["CCOc1cc(NC(C)=O)ccc1C(=O)NN1C(=O)C(Cl)C1c1ccc(O)c(OC)c1 (stereo unspecified)", 19.5]
]}

Fill in reported TGI for this entry: N#CC12CCC(O)C(CC1)C2=O (stereo unspecified) 77.3

###

Below is a list of entries, each paired with its recorded GI50 value.
- Test system: MDA-MB-231 breast
- assay.summary: NCI tumour cell line growth inhibition, 48 h

{"columns": ["molecule", "result"],
 "data": [
  ["C=C(CN1CCc2ccccc2C1)c1ccc(/C=C/C(=O)Nc2ccccc2N)cc1", "4.36 µM"],
  ["COc1ccc(/C=C/C(=O)/C=C(/C=C/c2ccc(OC)c(OC)c2)OB(F)F)cc1OC", "0.621 µM"],
  ["CCN(CC)c1ccc2[nH]c3c(C(N)=O)cc(=O)c(=O)c=3oc2c1", "2.9 µM"],
  ["O=C1C(Cl)=C(Oc2ccccc2)C(=O)c2ccccc21", "6.51 µM"]
]}

Fill in reported GI50 for this entry: CC1=C(C(=O)Nc2ccc(F)c(Cl)c2)C(c2cccc(O)c2)NC(=S)N1 (stereo not given) 10.9 µM

###

- Test system: U251 CNS
- assay.summary: NCI tumour cell line growth inhibition, 48 h
Below is a list of entries, each paired with its recorded TGI value.
Field: numeric (µM). Do not append units.

Previously resolved entries follow.
{"columns": ["molecule", "TGI, µM"],
 "data": [
  ["COc1cc2c3c(n(CCCO)c(=O)c2cc1OC)-c1cc2c(cc1C3=O)OCO2", 27.8],
  ["COCC1N=C(c2ccc(OC)c(OCc3ccccc3)c2OC)O[C@H]1c1ccccc1 (stereo not given in full)", 60.6],
  ["CCN(Cc1ccc(F)cc1F)c1ccc(CO)c(Cl)c1", 18.8]
]}

Then there is this molecule:
Fill in reported TGI for this entry: O=[N+]([O-])/C(C(Cl)=C(Cl)Cl)=C(\Nc1cccc2cccnc12)Sc1ccccc1 54.2

###

Below is a list of entries, each paired with its recorded TGI value.
- System: PC-3 prostate
- assay.summary: NCI tumour cell line growth inhibition, 48 h
Field: numeric (µM). Do not append units.

{"columns": ["structure", "assay.system", "TGI (µM)"],
 "data": [
  ["c1ccc(Oc2c3ccccc3nc3ccccc23)cc1", "PC-3 prostate", 15.8],
  ["COc1ccc2c(CN3CCC(CO)CC3)cc3cc4c(cc3c2c1)OCO4", "PC-3 prostate", 1.02],
  ["C=C1C(=O)O[C@H]2[C@H]1CC/C(COC(=O)/C=C/c1cccnc1)=C\\CC[C@@]1(C)O[C@@H]21", "PC-3 prostate", 22.1]
]}

Then there is this molecule:
Provide TGI, recorded with PC-3 prostate, of COc1cccc(-c2nc(-c3ccc(NS(=O)(=O)c4ccccc4)cc3)[nH]c2-c2ccnc(Br)c2)c1 16.9

###

Below is a list of entries, each paired with its recorded TGI value.
- Tested on: CAKI-1 renal
- assay.summary: NCI tumour cell line growth inhibition, 48 h
Field: numeric (µM). Do not append units.

{"columns": ["structure", "result"],
 "data": [
  ["COC(=O)/N=[N+](\\[O-])C(c1ccc(Cl)cc1)c1ccc(Cl)cc1", 34.5]
]}

Then there is this compound:
Fill in reported TGI for this entry: O=C(CSc1nc2ccc([N+](=O)[O-])cc2[nH]1)Nc1cccc(C(F)(F)F)c1 7.15

###

Below is a list of entries, each paired with its recorded log10 TGI value.
- System: ACHN renal
- assay.summary: NCI tumour cell line growth inhibition, 48 h
Short version: log10 scale, TGI, µM.

{"columns": ["compound", "log10 TGI"],
 "data": [
  ["Cc1ccc([N+](=O)[O-])cc1S(=O)(=O)Nc1ccc(C2=NOC(c3ccccc3)C2)cc1 (stereo unspecified)", 1.70],
  ["Nc1c(O)c2c(c(O)c1Cl)C(=O)C=CC2=O", 1.27],
  ["O=C(Nc1ccccc1)O/N=C1/CCCC/C1=C\\c1ccccc1", 1.48],
  ["CCCCCCCCCCCCOCCCCCCCCC/C=C/c1ccc2c(c1)OCCOCCOCCOCCO2", 1.63],
  ["Brc1nc2c3ccccc3ncn2c1Br", 1.71]
]}

Fill in reported log10 TGI for this entry: COc1cc(/C=C2\CC(C)CC3C2=NN(c2ccccc2)C3c2cc(OC)c(OC)c(OC)c2)cc(OC)c1OC (stereo unspecified) 1.65

Fill in reported log10 TGI for this entry: COC(=O)/C=C1\SC(=Nc2ccc(C(F)(F)F)cc2)N(CCc2c[nH]c3ccccc23)C1=O 0.46

Fill in reported log10 TGI for this entry: N#Cc1c(Cl)cccc1Oc1ccc(S(=O)(=O)/N=C(\NO)Nc2ccc(Cl)cc2)cc1 1.46

Fill in reported log10 TGI for this entry: Cc1cc2c(c(C=Nc3ccc(N(C)C)cc3)c1)OC1(C=C2)Oc2ccccc2C(=O)N1C (stereo unspecified) 1.41

Fill in reported log10 TGI for this entry: COC(=O)C1=C(O)C(C(=O)OC)[C@]2(O)[C@H](C(=O)OC)[C@H]1C[C@@H](c1ccc(Cl)cc1Cl)[C@H]2C(=O)OC (stereo partly specified) 1.63

Fill in reported log10 TGI for this entry: O=C(c1c(F)c(F)c(F)c(F)c1F)n1c(=O)[nH]c2ccccc21 1.47

Fill in reported log10 TGI for this entry: NCCCn1c2c(c3ccccc3c1=O)C(=O)c1cc3c(cc1-2)OCO3 -0.53

Values compiled from PubChem BioAssay (NCI).
